Test system: ducksalad (Heteranthera limosa)
TEST_METHOD_NOTES: Test B flooded paddy test, ducksalad
Assay type: in vivo
DETAILS: Flood, 250 g ai/ha, applied to paddy water, 2-leaf stage, visual evaluation after 13 to 15 d
Mark TRUE for Plant response rating, Ducksalad (0 to 100 scale, 0 is no effect, 100 is complete control) under 20, FALSE if at or over.

[[record]]
compound = "C[C@@H](Nc1nc(N)c(C(F)(F)F)c(C(F)F)n1)c1cc2ccccc2s1 [Compound 109]"
cat = "FALSE"

[[record]]
compound = "Cc1nc(NC(C)c2coc3ccccc23)nc(N)c1C(F)(F)F (stereo not drawn) [Compound 106]"
cat = "TRUE"

[[record]]
compound = "CC(COc1cc(F)c(F)c(F)c1)Nc1ncc(C(F)(F)F)c(N)n1 (stereo not drawn) [Compound 36]"
cat = "TRUE"

[[record]]
compound = "C[C@@H](Nc1ncc(C#N)c(N)n1)c1cc2ccccc2s1 [Compound 104]"
cat = "TRUE"

[[record]]
compound = "C[C@@H](Nc1ncc(C(F)(F)F)c(N)n1)c1cc2ccc(F)cc2s1 [Compound 46]"
cat = "FALSE"


Record Cc1nc(NC(C)c2cc3ccccc3s2)nc(N)c1C(F)(F)F (stereo not drawn) [Compound 105] : is its Plant response rating, Ducksalad (0 to 100 scale, 0 is no effect, 100 is complete control) strictly below 20?
TRUE

Input C[C@H](Nc1nc(N)c(C(F)(F)F)c(C(F)(F)F)n1)c1cc2ccccc2s1 [Compound 60]
TRUE

Input C[C@H](Nc1ncc(C(F)(F)F)c(N)n1)c1cc2ccccc2n1C [Compound 76]
TRUE

----------
System: foxtail, giant (Setaria faberii)
TEST_METHOD_NOTES: Test A postemergence, giant foxtail
Format: in vivo
DETAILS: 31 g ai/ha, 0 to 100 scale, 0 no effect, 100 complete control
Some compounds, each annotated with its measured Plant response rating, Foxtail, Giant.

[[record]]
compound = "C[C@@H](Nc1ncc(C(F)(F)F)c(N)n1)c1cc2c(F)ccc(F)c2s1"
attribute_measured = "Plant response rating, Foxtail, Giant"
measured = 10

[[record]]
compound = "C[C@@H](Nc1ncc(C(F)(F)F)c(N)n1)c1cc2c(Cl)cccc2s1"
attribute_measured = "Plant response rating, Foxtail, Giant"
measured = 10

[[record]]
compound = "CC(F)c1nc(N[C@H](C)c2cc3ccccc3s2)nc(N)c1C(F)(F)F (stereo partly shown)"
attribute_measured = "Plant response rating, Foxtail, Giant"
measured = 0


Continue with the compound presented below.
Please give the measured Plant response rating, Foxtail, Giant for this compound: CC(F)c1nc(N[C@H](C)c2cc3ccccc3o2)nc(N)c1C(F)(F)F (stereo partly shown)
0

----------
Tested on: blackgrass (Alopecurus myosuroides)
TEST_METHOD_NOTES: Test A postemergence, blackgrass
Type: in vivo
DETAILS: 500 g ai/ha, 0 to 100 scale, 0 no effect, 100 complete control
Some compounds, each annotated with its measured Plant response rating, Blackgrass.
Returns: the value as a bare number; no unit string appended.

Please give the measured Plant response rating, Blackgrass for this compound: Nc1nc(NC(c2cc3ccccc3s2)C2CC2)ncc1C(F)(F)F (racemic) [Compound 94]
0

----------
System: pigweed (Amaranthus retroflexus)
TEST_METHOD_NOTES: Test A preemergence, pigweed
Format: in vivo
DETAILS: 500 g ai/ha, 0 to 100 scale, 0 is no effect, 100 is complete control
ATTRIBUTE_MEASURED: Pigweed plant response rating
Returns: the value as a bare number; no unit string appended.

# annotated cases, reported Pigweed plant response rating shown
[[record]]
compound = "Cc1ccc2c(C(C)Nc3ncc(C(F)(F)F)c(N)n3)coc2c1 (centres unmarked)"
measured = 100

[[record]]
compound = "C[C@H](Nc1ncc(C(F)(F)F)c(N)n1)c1cc2cccc(F)c2o1"
measured = 80

[[record]]
compound = "C[C@H](Nc1ncc(C(F)(F)F)c(N)n1)c1cc2ccccc2n1C"
measured = 0

[[record]]
compound = "CC(Nc1ncc(C(F)(F)F)c(N)n1)c1coc2cc(F)ccc12 (racemic)"
measured = 100


Please give the measured Pigweed plant response rating for this compound: CC(Nc1nc(N)c(C(F)(F)F)c(C(F)(F)F)n1)c1cc2ccccc2o1 (racemic)
0

----------
Some compounds, each annotated with its measured Plant response rating, Ragweed.
Test system: ragweed (common ragweed, Ambrosia elatior)
TEST_METHOD_NOTES: Test A preemergence, ragweed
Assay type: in vivo
DETAILS: 125 g ai/ha, 0 to 100 scale
Returns: the value as a bare number; no unit string appended.

# annotated cases, reported Plant response rating, Ragweed shown
[[record]]
compound = "C[C@@H](Nc1ncc(C(F)(F)F)c(N)n1)c1cc2ccc(Cl)cc2o1"
measured = 20

[[record]]
compound = "C[C@@H](Nc1ncc(C(F)(F)F)c(N)n1)c1cc2ccccc2s1"
measured = 100

[[record]]
compound = "C[C@@H](Nc1ncc(C(F)(F)F)c(N)n1)c1ccc2ccccc2c1"
measured = 0

[[record]]
compound = "C[C@@H](Nc1ncc(C(F)(F)F)c(N)n1)c1cc2ccc(F)cc2o1"
measured = 90


Continue with the compound presented below.
Please give the measured Plant response rating, Ragweed for this compound: CCC(Nc1ncc(C#N)c(N)n1)c1cc2ccccc2o1 (racemic)
40

----------
Some molecules, each annotated with its measured plant injury at 500 g/ha.
System: wheat (Triticum aestivum)
TEST_METHOD_NOTES: Test A postemergence, wheat
Type: in vivo
DETAILS: Triticum aestivum, post-emergence, 240 h, 500 g ai/ha, 0 to 100 scale, read-out: Plant response rating, Wheat
Note: unit % is implicit; provide only the numeric part.

# annotated cases, reported plant injury at 500 g/ha shown
[[record]]
cpd_smiles = "C[C@@H](Nc1ncc(C(F)(F)F)c(N)n1)C1Cc2ccccc2C1"
unit_name = "%"
measured = 20

[[record]]
cpd_smiles = "Cc1cc(C)cc(OC[C@@H](C)Nc2ncc(C(F)(F)F)c(N)n2)c1"
unit_name = "%"
measured = 30

[[record]]
cpd_smiles = "C[C@@H](Nc1ncc(C(F)(F)F)c(N)n1)c1cc2ccccc2s1"
unit_name = "%"
measured = 0


Continue with the molecule presented below.
Please give the measured plant injury at 500 g/ha for this molecule: C[C@@H](Nc1ncc(C(F)(F)F)c(N)n1)c1cc2ccc(F)cc2o1
0

----------
Tested on: ragweed (common ragweed, Ambrosia elatior)
TEST_METHOD_NOTES: Test A postemergence, ragweed
Assay type: in vivo
DETAILS: 125 g ai/ha, 0 to 100 scale, 0 no effect, 100 complete control
Mark criterion met for Plant response rating, Ragweed under 30, criterion not met if at or over.

Worked cases, answers included:
[[record]]
compound = "C[C@@H](Nc1nc(N)c(C(F)(F)F)c(C(F)F)n1)c1cc2ccccc2s1 [Compound 109]"
cat = "criterion not met"

[[record]]
compound = "CCC(Nc1ncc(C(F)(F)F)c(N)n1)c1coc2ccccc12 (racemic) [Compound 53]"
cat = "criterion met"

[[record]]
compound = "CC(Nc1ncc(C(F)(F)F)c(N)n1)c1coc2cc(Cl)ccc12 (racemic) [Compound 77]"
cat = "criterion met"

[[record]]
compound = "C[C@H](Nc1ncc(C(F)(F)F)c(N)n1)c1coc2ccc(F)cc12 [Compound 56]"
cat = "criterion met"

[[record]]
compound = "CC(F)c1nc(N[C@H](C)c2cc3ccccc3s2)nc(N)c1C(F)(F)F (stereo partly drawn) [Compound 108]"
cat = "criterion not met"

[[record]]
compound = "CC[C@@H](Nc1ncc(C(F)(F)F)c(N)n1)c1cc2ccccc2s1 [Compound 43]"
cat = "criterion not met"

[[record]]
compound = "C[C@@H](Nc1ncc(C#N)c(N)n1)c1cc2ccccc2s1 [Compound 104]"
cat = "criterion met"

[[record]]
compound = "C[C@@H](Nc1ncc(C(F)(F)F)c(N)n1)c1cc2ccc(F)cc2s1 [Compound 46]"
cat = "criterion not met"


Record CC(Nc1ncc(S(C)(=O)=O)c(N)n1)c1cc2ccccc2s1 (stereo not drawn) [Compound 107] : is its Plant response rating, Ragweed strictly below 30?
criterion not met

Input C[C@H](Nc1nc(N)c(C(F)(F)F)c(C(F)(F)F)n1)C1Cc2ccccc2C1 [Compound 68]
criterion not met

Input CC(Nc1nc(N)c(C(F)(F)F)c(C(F)(F)F)n1)C1Cc2ccccc2C1 (racemic) [Compound 69]
criterion met

Input CC(C)[C@@H](Nc1ncc(C(F)(F)F)c(N)n1)c1cc2ccccc2s1 [Compound 50]
criterion met

----------
System: kochia (Kochia scoparia)
TEST_METHOD_NOTES: Test A postemergence, kochia
Assay type: in vivo
DETAILS: Bassia scoparia, post-emergence, 240 h, 500 g ai/ha, 0 to 100 scale, 0 no effect, 100 complete control, read-out: Plant response rating, Kochia
ATTRIBUTE_MEASURED: pest or weed control at 500 g/ha (%)
Note: unit % is implicit; provide only the numeric part.

# annotated cases, reported pest or weed control at 500 g/ha shown
[[record]]
cpd_smiles = "C[C@@H](Nc1ncc(C(F)(F)F)c(N)n1)c1cc2cccc(F)c2s1"
measured = 90

[[record]]
cpd_smiles = "C[C@@H](Nc1ncc(C(F)(F)F)c(N)n1)c1cc2cccc(F)c2o1"
measured = 90

[[record]]
cpd_smiles = "C[C@@H](Nc1ncc(C(F)(F)F)c(N)n1)c1cc2c(F)cccc2o1"
measured = 100


Please give the measured pest or weed control at 500 g/ha for this compound: C[C@@H](Nc1ncc(C(F)(F)F)c(N)n1)c1cc2c(F)cccc2s1
90
